# Protocol Details: STAT1 signaling activators, primary screen, cell-based, HTS, luciferase reporter (AID 932);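 note: raw ratio to IFN-gamma control signal so 100% means no change and 0% no light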
# Particulars: NIH 3T3 STAT1-luciferase reporter, IFN-gamma, luminescence; at 5.5 µM; 100% = IFN-gamma alone, no compound
Hit rate of the full screen: of about 200,000 compounds, about 5,100 (2.5%) were called active.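 Rule for the calls: active = activation above the screen-wide mean activation plus 3 SD (cut at about 130% in these data); inactive = the rest.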 Many of the other results were omitted from the sample, so actives are more common in it than they were.
Outcomes: 1 for active, -1 for inactive

Compound	Class Name
Cc1cccc(NC(=O)/C=C/c2ccc3c(c2)OCO3)n1	1
CCOc1ccc2nc(SC(CC)C(=O)Nc3cc(C)on3)sc2c1 (stereo unspecified)	-1
CCc1c(C)sc(NC(=O)/C=C/c2ccc3c(c2)OCO3)c1C(=O)OC	-1
CCOc1ccc2nc(C(=O)N3CCCC(C)C3)sc2c1 (stereo unspecified)	1
CCOc1ccc2nc(Nc3nc4ccc(NC(C)=O)cc4s3)sc2c1	-1
COc1ccc(/C=C/C(=O)Nc2ccc3c(c2)OCCO3)cc1OC	-1
CN(C(=O)COc1ccccc1)c1nnc(-c2ccncc2)s1	-1
CC(C)C(=O)Nc1cccc(C(=O)Nc2ccc3c(c2)OCO3)c1	-1
CC(NC(=O)Nc1ccc2c(c1)OCO2)c1ccncc1 (stereo unspecified)	-1
COc1ccc(OC)c(/C=C/C(=O)OCC(=O)Nc2ccc3c(c2)OCCO3)c1	-1
O=C(/C=C/c1ccc2c(c1)OCO2)NCc1ccc(F)cc1	-1
